TARGET: 72 kDa type IV collagenase (Homo sapiens)
Sequence (P08253 whole entry): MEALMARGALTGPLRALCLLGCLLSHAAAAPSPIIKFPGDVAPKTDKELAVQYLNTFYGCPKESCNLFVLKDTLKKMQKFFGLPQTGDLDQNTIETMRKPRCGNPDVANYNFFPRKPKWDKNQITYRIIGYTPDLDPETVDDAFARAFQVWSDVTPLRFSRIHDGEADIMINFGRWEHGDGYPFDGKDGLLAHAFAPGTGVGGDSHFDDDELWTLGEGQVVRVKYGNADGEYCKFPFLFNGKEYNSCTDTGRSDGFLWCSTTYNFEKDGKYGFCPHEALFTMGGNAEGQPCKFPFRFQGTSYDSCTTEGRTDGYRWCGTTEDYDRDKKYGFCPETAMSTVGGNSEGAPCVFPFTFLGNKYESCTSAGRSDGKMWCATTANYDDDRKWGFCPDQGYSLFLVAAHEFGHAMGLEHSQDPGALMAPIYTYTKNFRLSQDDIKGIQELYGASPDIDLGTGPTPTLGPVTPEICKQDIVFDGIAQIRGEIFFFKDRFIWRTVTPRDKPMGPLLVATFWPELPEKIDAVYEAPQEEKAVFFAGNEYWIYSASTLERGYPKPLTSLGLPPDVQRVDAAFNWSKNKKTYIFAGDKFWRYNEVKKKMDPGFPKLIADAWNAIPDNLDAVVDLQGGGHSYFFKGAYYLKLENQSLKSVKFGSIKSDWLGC
ASSAY_COMMENT: Inhibition of human recombinant MMP2
pIC50: −log10 of the molar value. Where a SMILES comes first, the peptide text is derived from it. The star is where a group is joined. Cbz = O=C(OCc1ccccc1)*
Reported pIC50 values follow for various compounds

CNC(=O)[C@H](Cc1ccccc1)NC(=O)[C@@H](N)CC(C)C: < 3.52
CNC(=O)[C@H](Cc1ccccc1)NC(=O)[C@@H](CC(C)C)NC(=O)NO: < 3.52
CNC(=O)[C@H](Cc1ccccc1)NC(=O)[C@H](CC(C)C)NC(=O)NO: 4.22
COC(=O)[C@H](Cc1ccccc1)NC(=O)[C@H](CC(C)C)NC(=O)OCc1ccccc1 (Cbz-Leu-Phe-OMe): < 3.52

Query: pIC50; subject: CNC(=O)[C@H](Cc1ccccc1)NC(=O)[C@H](N)CC(C)C
< 3.52

----------
Reported pIC50 values follow for various compounds
TARGET: Interstitial collagenase (Homo sapiens)
Sequence (P03956 whole entry): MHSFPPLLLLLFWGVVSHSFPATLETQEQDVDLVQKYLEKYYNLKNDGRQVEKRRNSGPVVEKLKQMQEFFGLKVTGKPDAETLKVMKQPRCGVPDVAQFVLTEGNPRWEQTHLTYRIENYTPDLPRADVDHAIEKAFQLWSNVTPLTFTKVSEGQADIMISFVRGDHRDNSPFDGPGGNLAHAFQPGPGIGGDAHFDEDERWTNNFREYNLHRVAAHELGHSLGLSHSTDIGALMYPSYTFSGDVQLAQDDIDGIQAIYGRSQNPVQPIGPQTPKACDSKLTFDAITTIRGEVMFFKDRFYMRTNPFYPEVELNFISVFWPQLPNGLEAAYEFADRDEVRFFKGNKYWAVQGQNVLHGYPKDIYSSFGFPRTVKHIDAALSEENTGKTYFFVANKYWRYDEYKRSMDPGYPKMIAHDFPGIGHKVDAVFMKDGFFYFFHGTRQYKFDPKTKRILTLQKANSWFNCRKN
ASSAY_COMMENT: Inhibition of human recombinant MMP1
pIC50: −log10 of the molar value. Where a SMILES comes first, the peptide text is derived from it. The star is where a group is joined. Cbz = O=C(OCc1ccccc1)*

Recorded pIC50, per entry:
CNC(=O)[C@H](Cc1ccccc1)NC(=O)[C@H](CC(C)C)NC(=O)NO: 3.57
CNC(=O)[C@H](Cc1ccccc1)NC(=O)[C@@H](CC(C)C)NC(=O)NO: < 3.52
COC(=O)[C@H](Cc1ccccc1)NC(=O)[C@H](CC(C)C)NC(=O)OCc1ccccc1 (Cbz-Leu-Phe-OMe): < 3.52

// next item, pIC50 requested
Query: pIC50; subject: CNC(=O)[C@H](Cc1ccccc1)NC(=O)[C@H](N)CC(C)C
< 3.52

----------
TARGET: Neutrophil collagenase (Homo sapiens, UniProt P22894)
Sequence (P22894 whole entry): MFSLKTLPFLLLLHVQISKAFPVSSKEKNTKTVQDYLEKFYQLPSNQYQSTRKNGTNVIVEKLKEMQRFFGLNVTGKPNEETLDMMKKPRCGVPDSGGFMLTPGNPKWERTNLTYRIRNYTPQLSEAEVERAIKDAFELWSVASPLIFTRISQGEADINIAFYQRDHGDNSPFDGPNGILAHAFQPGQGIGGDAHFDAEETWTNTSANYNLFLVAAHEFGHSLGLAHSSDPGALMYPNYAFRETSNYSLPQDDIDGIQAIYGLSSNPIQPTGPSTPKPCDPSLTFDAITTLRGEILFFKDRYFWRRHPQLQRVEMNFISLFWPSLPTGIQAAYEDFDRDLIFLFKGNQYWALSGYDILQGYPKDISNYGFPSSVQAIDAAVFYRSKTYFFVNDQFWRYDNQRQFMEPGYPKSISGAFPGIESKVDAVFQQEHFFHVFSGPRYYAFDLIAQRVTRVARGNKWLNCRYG
ASSAY_COMMENT: Inhibition of human recombinant MMP8
Reported pIC50 values follow for various molecules
Entry type: numeric. Quantity: pIC50, the -log10 of concentration in molar units.

CNC(=O)[C@H](Cc1ccccc1)NC(=O)[C@H](CC(C)C)NC(=O)NO: 4.15

// next item, pIC50 requested
Query: pIC50; subject: CNC(=O)[C@H](Cc1ccccc1)NC(=O)[C@@H](CC(C)C)NC(=O)NO
3.82

----------
Reported pIC50 values follow for various compounds
TARGET: UniProt P14780
Sequence (P14780 whole entry): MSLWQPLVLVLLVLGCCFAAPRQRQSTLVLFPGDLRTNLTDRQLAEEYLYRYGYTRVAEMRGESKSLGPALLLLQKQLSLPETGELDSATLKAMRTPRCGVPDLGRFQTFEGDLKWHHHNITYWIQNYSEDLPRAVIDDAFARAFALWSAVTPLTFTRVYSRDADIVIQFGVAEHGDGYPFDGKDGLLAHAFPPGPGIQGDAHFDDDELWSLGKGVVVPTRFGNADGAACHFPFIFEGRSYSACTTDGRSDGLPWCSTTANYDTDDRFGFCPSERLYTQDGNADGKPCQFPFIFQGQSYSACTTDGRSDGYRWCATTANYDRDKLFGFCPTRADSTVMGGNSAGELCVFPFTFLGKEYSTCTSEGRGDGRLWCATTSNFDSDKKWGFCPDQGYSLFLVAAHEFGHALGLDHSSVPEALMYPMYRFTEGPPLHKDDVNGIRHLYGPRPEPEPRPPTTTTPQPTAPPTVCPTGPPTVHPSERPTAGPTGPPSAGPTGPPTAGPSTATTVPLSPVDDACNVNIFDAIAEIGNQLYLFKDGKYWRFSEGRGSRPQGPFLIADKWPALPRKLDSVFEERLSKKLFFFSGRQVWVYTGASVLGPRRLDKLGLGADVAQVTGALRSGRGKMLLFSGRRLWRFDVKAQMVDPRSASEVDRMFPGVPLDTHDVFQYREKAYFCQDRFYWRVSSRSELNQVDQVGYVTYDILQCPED
ASSAY_COMMENT: Inhibition of human recombinant MMP9
pIC50: −log10 of the molar value. Where a SMILES comes first, the peptide text is derived from it. The star is where a group is joined. Cbz = O=C(OCc1ccccc1)*

Recorded pIC50, per entry:
COC(=O)[C@H](Cc1ccccc1)NC(=O)[C@H](CC(C)C)NC(=O)OCc1ccccc1 (Cbz-Leu-Phe-OMe): < 3.52
CNC(=O)[C@H](Cc1ccccc1)NC(=O)[C@@H](N)CC(C)C: < 3.52

// next item, pIC50 requested
Query: pIC50; subject: CNC(=O)[C@H](Cc1ccccc1)NC(=O)[C@H](N)CC(C)C
< 3.52
